Kindly supply the reported STK11 functional score values for the records listed here.
B1: library; numbered along this chain (parent)
chain: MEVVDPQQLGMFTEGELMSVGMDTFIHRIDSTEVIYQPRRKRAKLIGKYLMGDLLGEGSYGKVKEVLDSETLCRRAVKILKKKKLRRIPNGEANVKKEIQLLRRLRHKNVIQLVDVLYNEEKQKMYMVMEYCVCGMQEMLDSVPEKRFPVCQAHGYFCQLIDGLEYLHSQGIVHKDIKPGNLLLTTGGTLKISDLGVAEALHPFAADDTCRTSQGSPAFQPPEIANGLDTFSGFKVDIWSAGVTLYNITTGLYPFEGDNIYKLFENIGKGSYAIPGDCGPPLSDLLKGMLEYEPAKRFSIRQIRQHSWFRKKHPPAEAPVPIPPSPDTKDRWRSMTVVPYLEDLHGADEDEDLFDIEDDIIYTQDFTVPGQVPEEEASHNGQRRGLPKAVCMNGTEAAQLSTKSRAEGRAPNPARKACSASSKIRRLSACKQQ

- Variants of: B1
- test name: STK11 functional score (HeLa growth suppression), rescaled enrichment; synonymous median = 1, nonsense median = 0 (normalised score)
- protocol conditions: with HeLa; variant type: missense
Give bare numbers.

H174G	0.326

For each of the variants below, state STK11 functional score.
1. A218N
2. E256S
3. G346N
4. P324S
5. P144L
6. Y362C
7. F234W

[1.35, 1.36, 1.6, 1.45, 0.658, 1.33, 1.44]
